assayExplanation: Compound was tested for inhibition of Protein tyrosine phosphatase (PTP1B)
Recorded measurements of IC50, one per entry

>  <molecule>
O=c1c(O)c(-c2ccccc2)c1=O

>  <endpointLabel>
IC50

>  <reportedResult>
60 µM

$$$$
>  <molecule>
O=CCCc1ccccc1 [DIHYDROCINNAMALDEHYDE]

>  <endpointLabel>
IC50

>  <reportedResult>
> 300 µM

$$$$

Consider now this further molecule.
IC50 for "O=Cc1ccccn1" is > 300 µM

====

assayExplanation: Compound was tested for inhibition of Protein tyrosine phosphatase (PTP1B)
endpointLabel: Kd (µM)

>  <molecule>
O=c1c(O)c(-c2ccccc2)c1=O

>  <reportedResult>
25

$$$$

(1) O=Cc1ccccn1 [2-PYRIDINECARBOXALDEHYDE]
(2) O=CCCc1ccccc1 [DIHYDROCINNAMALDEHYDE]
# input Of the two listed items, 1 and 2 , which carries the larger Kd figure? Identify your pick by its label.
# output 2
